# target_desc: cyclooxygenase (Ovis aries, UniProt P05979)
# Construct: Ram seminal vesicular glands were trimmed of fat; from tissue; host or cells: ram seminal vesicular glands, microsomal pellet (105K xg)
# Sequence (P05979 25-600): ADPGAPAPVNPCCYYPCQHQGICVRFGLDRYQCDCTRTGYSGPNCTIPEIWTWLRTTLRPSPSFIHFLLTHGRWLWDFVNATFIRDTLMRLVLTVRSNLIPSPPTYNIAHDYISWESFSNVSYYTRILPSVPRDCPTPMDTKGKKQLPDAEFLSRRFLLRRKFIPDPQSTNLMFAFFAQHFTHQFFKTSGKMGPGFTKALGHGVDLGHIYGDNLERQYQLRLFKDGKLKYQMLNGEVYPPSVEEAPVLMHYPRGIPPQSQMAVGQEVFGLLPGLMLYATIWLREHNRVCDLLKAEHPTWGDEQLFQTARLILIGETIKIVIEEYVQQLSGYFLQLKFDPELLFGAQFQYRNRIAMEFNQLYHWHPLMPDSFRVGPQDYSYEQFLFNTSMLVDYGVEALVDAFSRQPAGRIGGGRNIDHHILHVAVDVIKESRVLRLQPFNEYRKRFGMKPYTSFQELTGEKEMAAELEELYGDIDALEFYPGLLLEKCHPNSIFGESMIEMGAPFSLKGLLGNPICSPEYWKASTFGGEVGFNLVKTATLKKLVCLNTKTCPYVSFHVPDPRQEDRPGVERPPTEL
# experiment: RSVM-CO: Ram Seminal Vesicle Microsomal Cyclooxygenase assay
# Type: biochemical
# protocol_conditions: 1 μg/ml
property_label: inhibition at 1 µg/mL (%)

- CC(=O)Oc1c(-c2ccccc2)sc(-c2ccccc2)c1-c1ccccc1 [Compound 7]: 12

1 = CC(=O)Oc1cc(-c2ccccc2)sc1-c1cccnc1 [Compound 16]
2 = CC(=O)Oc1cc(-c2ccccc2)sc1-c1ccccc1 [Compound 3]
Task: I'm curious whether 1 or 2 has the smaller inhibition at 1 µg/mL number. Which is it? # respond with the chosen item's label
Result: 1
(1: 0%, 2: 8%)

###

# target_desc: 5-lipoxygenase (Rattus norvegicus, UniProt P12527)
# Construct: endogenous in cells; host or cells: casein-elicited peritoneal polymorphonuclear leukocytes of male Sprague-Dawley rats
# experiment: PMN5LO assay: inhibition of LTB4 production in A23187-stimulated rat peritoneal PMN (RIA)
# Format: cell-based
# protocol_conditions: 0.33 μg/ml
property_label: inhibition at 0.33 µg/mL (%)

Worked cases, inhibition at 0.33 µg/mL given:
- COCC(=O)Oc1cc(-c2ccccc2)sc1-c1ccccc1 [Compound 10]: 100
- Oc1cc(-c2ccccc2)sc1-c1ccccc1 [Compound 4, 3-Hydroxy-2,5-diphenylthiophene]: 98

a = CC(=O)Oc1csc(-c2ccccc2)c1 [Compound 1]
b = COc1cc(-c2ccccc2)sc1-c1ccccc1 [Compound 19]
c = COc1ccc(-c2sc(-c3ccccc3)cc2OC(C)=O)cc1 [Compound 14]
Task: Arrange the 3 compounds by rising inhibition at 0.33 µg/mL, starting with the smallest. Order the labels as requested and give them as your answer.
Result: b, a, c
(b: 0%, a: 19%, c: 100%)

###

# target_desc: 5-lipoxygenase (Rattus norvegicus, UniProt P12527)
# Construct: endogenous in cells; host or cells: casein-elicited peritoneal polymorphonuclear leukocytes of male Sprague-Dawley rats
# Sequence (P12527 1-673): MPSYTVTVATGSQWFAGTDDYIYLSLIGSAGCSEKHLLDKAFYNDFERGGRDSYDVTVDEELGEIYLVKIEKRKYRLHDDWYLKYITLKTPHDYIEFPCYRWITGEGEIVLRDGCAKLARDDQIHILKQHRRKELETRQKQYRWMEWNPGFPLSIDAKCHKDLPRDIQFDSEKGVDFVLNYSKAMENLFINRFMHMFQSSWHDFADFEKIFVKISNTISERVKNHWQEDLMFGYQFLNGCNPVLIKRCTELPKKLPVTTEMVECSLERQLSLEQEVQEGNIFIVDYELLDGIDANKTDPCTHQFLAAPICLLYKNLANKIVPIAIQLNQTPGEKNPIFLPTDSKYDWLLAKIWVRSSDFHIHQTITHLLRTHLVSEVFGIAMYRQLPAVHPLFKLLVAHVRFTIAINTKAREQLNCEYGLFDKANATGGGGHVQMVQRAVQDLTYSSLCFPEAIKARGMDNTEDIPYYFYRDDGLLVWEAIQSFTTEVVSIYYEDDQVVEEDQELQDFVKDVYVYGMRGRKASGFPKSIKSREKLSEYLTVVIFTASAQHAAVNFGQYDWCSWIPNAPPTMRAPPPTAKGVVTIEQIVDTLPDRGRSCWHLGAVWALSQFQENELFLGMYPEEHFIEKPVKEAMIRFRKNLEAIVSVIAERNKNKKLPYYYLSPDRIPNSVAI
# experiment: PMN5LO assay: inhibition of LTB4 production in A23187-stimulated rat peritoneal PMN (RIA)
# Format: cell-based
# protocol_conditions: 1 μg/ml
property_label: inhibition at 1 µg/mL (%)

* CC(=O)Oc1cc(-c2ccccc2)sc1-c1cccnc1 | 100
* Oc1cc(-c2ccccc2)sc1-c1cccnc1 | 87
* COc1ccc(-c2sc(-c3ccccc3)cc2OC(C)=O)cc1 | 100
* CC(=O)Oc1csc(-c2ccccc2)c1 | 18
* CCC(=O)Oc1cc(-c2cccc(C(F)(F)F)c2)sc1-c1ccccc1 | 22

A = CC(=O)Oc1cc(-c2cccc(C(F)(F)F)c2)sc1-c1ccccc1
B = Oc1cc(-c2ccccc2)sc1-c1ccccc1 [Compound 4, 3-Hydroxy-2,5-diphenylthiophene]
Task: I'm curious whether A or B has the smaller inhibition at 1 µg/mL number. Which is it? # respond with the chosen item's label
Result: A
(A: 38%, B: 99%)

Numbers sourced from patent US4999436A.
